experiment: Gravimetric solubility measurement in solvents; assay type: physicochemical; conditions: organic solvent or mixture, thermodynamic from solid; DCM; 15° C.; slurried 3 days; read-out: Solubility at 15° C.
measured attribute: solubility at 3 days
Returns: string containing the numeric result and its unit.

Item CC(C)(C)c1[nH]cnc1/C=c1\[nH]c(=O)/c(=C/c2ccccc2)[nH]c1=O [plinabulin monohydrate] has what recorded solubility at 3 days?
2000 µg/mL

###

experiment: Gravimetric solubility measurement in solvents; format: physicochemical; conditions: organic solvent or mixture, thermodynamic from solid; Heptane; 15° C.; slurried 3 days; read-out: Solubility at 15° C.
measured attribute: solubility at 3 days

Would you kindly share the measured solubility at 3 days for CC(C)(C)c1[nH]cnc1/C=c1\[nH]c(=O)/c(=C/c2ccccc2)[nH]c1=O [plinabulin monohydrate] ?
< 1 mg/mL

Provenance of the data: patent US11254657B2
